- Tested on: HeLa or JURKAT cells
- test details: Cytotoxicity assay (Alamar Blue) with guanosine rescue
- Format: cell-based
- recorded conditions: normal culture conditions, HeLa or JURKAT
pIC50: −log10 of the molar value.
endpoint name: pIC50

Form field: reported pIC50 of COc1c(C)c2c(c(O)c1C/C=C(\C)CCC(=O)O)C(=O)OC2 [Mycophenolic acid]
> 5.70

###

- Test system: white blood cells
- test details: Immune cell selective uptake (immune selectivity ratio) in blood cell preparations
- Assay type: cell-based, mammalian
- Set-up: key: Y: Compounds exhibiting high uptake; N: similar structures that do not
- recorded conditions: uptake in white cells from blood cell mix; Y/N
endpoint name: Concentrative uptake

>>> recorded_measurement("CN(C)c1cccc2c(S(=O)(=O)NCCCN3CCCC3=O)cccc12")
"N"
>>> recorded_measurement("COC(=O)C1CN(S(=O)(=O)c2cccc3c(N(C)C)cccc23)CCC1=O (stereo not drawn)")
"N"
>>> recorded_measurement("COc1cc2oc(=O)cc(CC(NC(=O)CN)C(=O)O)c2cc1OC (stereo not drawn)")
"N"
>>> recorded_measurement("CC[C@H]1OC(=O)[C@H](C)[C@@H](O[C@H]2C[C@@](C)(OC)[C@@H](O)[C@H](C)O2)[C@H](C)[C@@H](OC2O[C@H](C)C[C@H](N(C)C)[C@H]2O)[C@](C)(O)C[C@@H](C)CN(Cc2cc(=O)oc3cc(OC)ccc23)[C@H](C)[C@@H](O)[C@]1(C)O (stereo partly drawn)")
"Y"
>>> recorded_measurement("O=c1ccc2cc(O[C@@H]3O[C@H](CO)C(O)[C@H](O)C3O)c(O)cc2o1 (stereo partly drawn)")
"Y"
>>> recorded_measurement("COc1cc(C)c(/C(=C\\C(C)=O)CC(NC(=O)C(N)CCC(=O)O)C(=O)O)cc1OC (stereo not drawn)")
"N"
>>> recorded_measurement("Cc1cc(=O)oc2cc(SCC(=O)NCCN3CCOCC3)ccc12")
"Y"
>>> recorded_measurement("COc1cc(C)c(/C(=C\\C(C)=O)CC(NC(=O)CCN)C(=O)O)cc1OC (stereo not drawn)")
"N"
>>> recorded_measurement("COc1ccc(/C(=C\\C(C)=O)CSc2nnc(-c3ccc([NH+]([O-])O)o3)s2)c(C)c1 (stereo not drawn)")
"N"
>>> recorded_measurement("CC[C@H]1OC(=O)[C@H](C)[C@@H](OC2C[C@@](C)(OC)[C@@H](O)[C@H](C)O2)[C@H](C)[C@@H](OC2O[C@H](C)C[C@H](N(C)C)[C@H]2O)[C@](C)(O)C[C@@H](C)/C(=N/OCc2cc(=O)oc3cc(OC)c(OC)cc23)[C@H](C)[C@@H](O)[C@]1(C)O (stereo partly drawn)")
"Y"

Consider the record given below.
Form field: reported Concentrative uptake of Cc1cc(=O)oc2cc(SCC(=O)NN3CCN(CCO)CC3)ccc12
N

###

- Tested on: white blood cells
- test details: Immune cell selective uptake (immune selectivity ratio) in blood cell preparations
- Format: cell-based, mammalian
- Parameters: key: Y: Compounds exhibiting high uptake; N: similar structures that do not
- recorded conditions: uptake in white cells from blood cell mix; Y/N
endpoint name: Concentrative uptake

Solved cases below.
>>> recorded_measurement("CN(C)c1cccc2c(S(=O)(=O)Nc3c[nH]c(=O)[nH]c3=O)cccc12")
"N"
>>> recorded_measurement("Cc1cc(=O)oc2cc(SCC(=O)NN3CCOCC3)ccc12")
"N"
>>> recorded_measurement("CCN(CC)c1ccc(NS(=O)(=O)c2cccc3c(N(C)C)cccc23)cc1")
"N"
>>> recorded_measurement("CN(C)c1cccc2c(S(=O)(=O)NN3CCN(CCO)CC3)cccc12")
"Y"
>>> recorded_measurement("CN(C)c1cccc2c(S(=O)(=O)NC(C)(CO)CO)cccc12")
"N"
>>> recorded_measurement("CN(C)c1cccc2c(S(=O)(=O)N3CCN(c4ccc(O)cc4)CC3)cccc12")
"N"

Form field: reported Concentrative uptake of CN(C)c1cccc2c(S(=O)(=O)NNC(=N)N)cccc12
N

Form field: reported Concentrative uptake of COc1cc(C)c(/C(=C\C(C)=O)CC(N)C(=O)O)cc1OC (stereo not drawn)
Y

Form field: reported Concentrative uptake of CN(C)c1cccc2c(S(=O)(=O)Nc3cc(O)[nH]n3)cccc12
Y

###

- Test system: white blood cells
- test details: Immune cell selective uptake (immune selectivity ratio) in blood cell preparations
- Format: cell-based, mammalian
- Set-up: key: Y: Compounds exhibiting high uptake; N: similar structures that do not
- recorded conditions: uptake in white cells from blood cell mix; Y/N
endpoint name: Concentrative uptake

>>> recorded_measurement("COc1ccc2c(CSc3ncnc4[nH]cnc34)cc(=O)oc2c1 [Compound 9]")
"N"
>>> recorded_measurement("CC(C)(C)OC(=O)NC(CSCC(=O)NCCNc1cccc2c(S(=O)(=O)O)cccc12)C(=O)O (stereo not shown) [Compound 8]")
"Y"
>>> recorded_measurement("Cc1cc(=O)oc2cc(SCC(=O)NC3CCOC3=O)ccc12 (stereo not shown) [Compound 22]")
"Y"
>>> recorded_measurement("O=C(CSc1ncnc2[nH]cnc12)NCCNc1cccc2c(S(=O)(=O)O)cccc12 [Compound 15]")
"Y"
>>> recorded_measurement("CN(C)c1cccc2c(S(=O)(=O)N3CCN(CCO)CC3)cccc12 [Compound 31]")
"N"
>>> recorded_measurement("CN(C)c1cccc2c(S(=O)(=O)N(CCO)CCO)cccc12 [Compound 33]")
"N"

Form field: reported Concentrative uptake of CN(C)c1cccc2c(S(=O)(=O)Nc3ccc(C(=O)O)cc3O)cccc12 [Compound 35]
N

Data provenance is patent US7579324B2.
